Provenance of the data: patent US20180037644A1

% inhibition 0.1 nM Ab, HEK293 ST2 NFkB values for the binders below.
tgt: T1, native human IL-33 from human lung fibroblast (HFL-1) lysate (human, UniProt O95760 1-270, limits assumed)
T1 sequence (looked up): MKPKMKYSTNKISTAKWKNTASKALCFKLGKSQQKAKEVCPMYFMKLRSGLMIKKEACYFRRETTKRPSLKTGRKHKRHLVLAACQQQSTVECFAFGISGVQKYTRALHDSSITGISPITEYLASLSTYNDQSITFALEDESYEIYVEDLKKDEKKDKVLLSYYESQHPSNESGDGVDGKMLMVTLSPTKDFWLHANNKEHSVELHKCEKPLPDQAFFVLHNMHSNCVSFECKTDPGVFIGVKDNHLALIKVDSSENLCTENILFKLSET
testSummary: cell-based or functional assay
I only need the number, in %, no unit after it.

Past entries and their recorded results:
>  <binder>
14D8 chimera/hu J (antibody, human IgG1, kappa, V domains shown, also called 14D8 huJseg) VH: EVQLVDSGGDQVQPGRSLKLSCVASGFIFKNYWMTWIRQVPGKGLEWIASITNSGGNTYYPDSVKGRFTISRDNAKDTLYLQMNSLRSEDTATYYCARDRRYNSGSPFAYWGQGTLVTVSS VL: DIQLTQSPSTLPASLGERVTISCRTSQSINNNLCWYQQKPDGTVKRLIYSTSTLESGVPSRFSGSGSGTDYSLSISSLESQDFAMYYCLQYATYPWTFGQGTKVEIKR

>  <% inhibition 0.1 nM Ab, HEK293 ST2 NFkB [%]>
61.1

$$$$
>  <binder>
rat 30B11 (30B11 hybridoma) (antibody, V domains shown) VH: QVKLLQSGAALVKPGASVKMSCATSGFSFTDYWVSWVKQSHGKGLEWIGEIYPNSGADNFNENFKGKATLTVDKSTSTAYMELSRLTSEDSAIYYCTRGPYYYSTQIIFAYWGQGTLVTVSS VL: NIVMTQSPKSMSISVGDRVTMNCKASQNVGNNLAWYQQKPGQSPKLLIYYASNRYTGVPDRFTGGGYGTDFTLTINSVQAEDAAFYYCQRIYNSPPTFGGGTKVELR

>  <% inhibition 0.1 nM Ab, HEK293 ST2 NFkB [%]>
93.5

$$$$
>  <binder>
rat 9B3 (9B3 hybridoma) (antibody, V domains shown) VH: EVQLVETGGGLVQPGRSLKLSCVASGFTFSNYWMYWIRQAPGMGLEWVSSINNDGGNTYYLDSVKGRFTISRNNAENTVYLQMNSLRSEDTATYYCAKGHYSYSSYSFSYWGQGTLVTVSS VL: DIQMTQSPSVLSASVGDRVTLSCKASHNINKHLDWCQQKVGEAPKLLIYFTNNLQTGIPSRFSGSGSGTDYTLTISSLQPEDVATYFCFQYNSGWTFGGGTKLELK

>  <% inhibition 0.1 nM Ab, HEK293 ST2 NFkB [%]>
55.1

$$$$

Turning now to a further binder:
Return reported % inhibition 0.1 nM Ab, HEK293 ST2 NFkB; argument: 12F9 chimera (antibody, human IgG1, kappa, V domains shown, also called chimeric 12F9) VH: EVQLVESGGDLVQPGRSLKLSCVTSGFIFKNYWMTWIRQVPGKGLEWVASITNTGGATYYPDSVKGRFTISRDNSENTLYLQMNSLRSEDTATYYCARDRRYNSGSPFAYWGQGTLVTVSS VL: DIQLTQSPSTLAASLGERVTISCRASQSISNSLIWFQQKPDGTIKRLIYSSSTLESGVPSRFSGSGSGTDYSLSISSLESEDFAMYYCLQYATYPWTFGGGTKLELRR
44.3
